test: Oral fluid and plasma MDMA and metabolite after controlled oral MDMA administration (Desrosiers et al.); type: in vivo, human; details: human, saliva (oral fluid) / plasma, MDMA (75 mg), read-out: Ratio Saliva/Blood
endpoint name: Kp

compound | endpoint name | result
CC(N)Cc1ccc2c(c1)OCO2 (centres unmarked) [MDA, methylenedioxyamphetamine] | Kp | 5.8
CNC(C)Cc1ccc2c(c1)OCO2 (centres unmarked) [MDMA, methylenedioxy-methamphetamine] | Kp | 11

----------
test: THC and metabolite concentrations in oral fluid and whole blood after smoking a cannabis joint (Fabritius et al.); settings: human, saliva (oral fluid) / whole blood, inhaled, 40 mg

compound | Kp
CCCCCc1cc(O)c2c(c1)OC(C)(C)[C@@H]1CCC(C)=C[C@@H]21 [THC, Δ9-tetrahydrocannabinol] | 7.3

----------
assay: Cocaine and metabolites in human oral fluid and plasma following controlled administration (Scheidweiler et al.); details: human, saliva (oral fluid) / plasma, sc, 75 mg
endpoint name: Kp

compound | endpoint name | quantitative result
COC(=O)[C@H]1[C@@H](OC(=O)c2ccccc2)C[C@@H]2CC[C@H]1N2C [Cocaine, cocaine] | Kp | 3.6

----------
assay: Methamphetamine disposition in oral fluid and plasma (Huestis et al.); conditions: human, saliva (oral fluid) / plasma, 20 mg

compound structure | Kp
CN[C@@H](C)Cc1ccccc1 | 6
